Assay Summary: chemical genetic growth profiling, strain panel (AID 1159580);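 note: tested at 20 µM; growth read once vehicle control cultures reached saturation at 30 °C; 1 = growth at the plate median or of vehicle wells; lower values mean less growth of the strain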
Reported Conditions: S. cerevisiae deletion strains, growth OD, locus YOR119C, strain RIO1, hits give low values
About 2,000 (36%) of roughly 5,500 compounds were called active. Another 18% or so got no clear call; they are omitted. The list shows a part of the results.
Criterion: normalized growth strictly under 0.9. Met: 1. Not met: -1.

                                    molecule  label
 0      Cc1c(Cc2ccc(F)cc2)c(=O)oc2cc(O)ccc12     -1
 1  O=C(N/C=C/c1ccsc1)Nc1cc(C(F)(F)F)cc(C(F)(F)F)c1      1
 2  O=S(=O)(Nc1cccc(CCc2ccccn2)c1)c1cc(Cl)c(Cl)cc1Cl     -1
 3  CSC1=NNC(c2nn(C)cc2Cl)S1 (stereo unspecified)      1
 4  Cc1ccc(OCC2SCCN2C(=O)c2ccc(C(F)(F)F)cc2)c([N+](=O)[O-])c1 (stereo unspecified)     -1
 5     Cc1cc(NNC(=O)c2ccccc2Cl)nc2c1c(C)nn2C     -1
 6  N#CC(C#N)=C(SCc1c(Cl)cccc1Cl)SCc1c(Cl)cccc1Cl     -1
 7             COc1cc(NC(=S)N(C)C)c(OC)cc1Cl     -1
 8  N#Cc1ccc(S(=O)(=O)Nc2ccccc2Oc2ccc(Cl)cc2Cl)cc1     -1
 9    Cc1ccc(Sc2c(Sc3ccc(C)cc3)c(=O)c2=O)cc1      1
10    COc1cc(NC(=S)NC(=O)c2ccccc2)c(OC)cc1Cl     -1
11  COc1ccc(CN2CSC(=S)N(Cc3ccc(OC)cc3)C2)cc1     -1
12   CC(C)(C)CN/C(C#N)=C(/C#N)NCc1cccc(Cl)c1     -1
13              Cc1cc(Cl)ccc1NNC(=O)c1snnc1C     -1
14        Cc1ccc(/C=C2\CSc3ccc(F)cc3C2=O)cc1     -1
15        COc1ccc(NNC(=O)c2sc3ccccc3c2Cl)cc1      1
16  O=C(Oc1ccc(C(F)(F)F)cc1[N+](=O)[O-])c1cccc(Cl)c1      1
17  O=c1c(Sc2ccc(Cl)cc2)c(Sc2ccc(Cl)cc2)c1=O      1
